measured on: Cytochrome P450 1A2 (Homo sapiens)
test: Cytochrome panel assay with activity outcomes
test settings: recombinant CYP, pro-luciferin dealkylation, luminescence, p450-cyp1a2; series mostly up to 57.1 µM
Out of some 16,000 compounds screened, about 5,700 (36%) were called active. Another 24% or so got no clear call; they are omitted. The call rests on the fitted dose curve; in most records, active means well fitted curve in the direction sought with a large enough effect; inconclusive means small, poorly fitted or top-dose-only effect, or effect the other way; inactive means no such curve, though single readings can be large or run the other way. The list shows a part of the results.
// allowed return values: active, inactive

# input Entry `Cc1cc(C(=O)CSC(=S)SC(C)(C)C)ccc1Cl` : call = ?
# output active

# input Try this molecule next: `COc1ccc(NC(=O)N2CC[C@@]3(CCCNC3)C2)cc1`
# output inactive

# input Try this molecule next: CCC1CC(CSc2ncn[nH]2)OC1=O (configuration not stated)
# output inactive

# input Try this molecule next: `O=C(Nc1cccc(-c2cnc3ccccc3n2)c1)c1ccc(Cl)cc1`
# output active

# input Try this molecule next: `CCN(CC)C(=O)c1cc2cc([N+](=O)[O-])ccc2s1`
# output active

# input Try this molecule next: `Cc1ccc(OCC(=O)NNC(=O)c2cccnc2)cc1`
# output inactive

# input Try this molecule next: `C=CCSc1nc(Oc2ccccc2)c2sccc2n1`
# output active

# input Try this molecule next: `COc1cccc(/C=N/NC(=O)CO/N=C(\C)c2cccs2)c1OC`
# output active

# input Try this molecule next: `O=C(OCc1ccccc1)/C(=C/c1ccc(Cl)cc1)NC(=O)c1ccccc1Cl`
# output active

# input Try this molecule next: `CC(C)NC(=O)N1CCC2(CC1)CCN(C(=O)c1cccc(F)c1)CC2`
# output inactive

# input Try this molecule next: `NC(=O)C(=O)O`
# output inactive

# input Try this molecule next: `C=CCSc1nc(NC)c2sccc2n1`
# output active

# input Try this molecule next: `Cc1ccc(NC(=O)/C(=C\c2ccc([N+](=O)[O-])cc2)NC(=O)c2ccccc2)cc1`
# output inactive

# input Try this molecule next: `c1ccc(Nc2ncncc2-c2ccoc2)cc1`
# output active

# input Try this molecule next: `CCCCc1c2ccccc2nc2[nH]c3ccccc3c12`
# output active

# input Try this molecule next: `Cc1ccc(C(=O)NNC(=O)c2cc3cc4ccccc4nc3s2)cc1`
# output inactive

# input Try this molecule next: `Cc1cc(C(F)(F)F)n2nc(-c3cnn(C)c3C(F)(F)F)cc2n1`
# output active

# input Try this molecule next: `CCCCc1[nH]c(=O)c(C#N)c2c1CCCC2`
# output active

# input Try this molecule next: `O=C(CSc1nc2ccccc2c(=O)n1NC(=O)Cc1ccccc1)NCc1ccccc1Cl`
# output active

# input Try this molecule next: `O=C(Nc1cccc2ccccc12)/C(=C/c1ccc([N+](=O)[O-])cc1)NC(=O)c1ccccc1`
# output active

# input Try this molecule next: `COc1ccccc1-c1cc(NCc2cnc(C)cn2)ncn1`
# output active

# input Try this molecule next: `Cc1cnc(CNc2cc(-c3ccccc3Cl)ncn2)cn1`
# output active

# input Try this molecule next: `Cc1ccc(C(=O)Nc2cccc(-c3cnc4ccccc4n3)c2)cc1`
# output active

# input Try this molecule next: `CCN(CC)C(=O)Cn1cnc([N+](=O)[O-])n1`
# output inactive

# input Try this molecule next: `CS(=O)(=O)N1CCC2(CCCN(c3ccncc3)C2)CC1`
# output inactive

# input Try this molecule next: `O=C(Nc1ccccc1N1CCOCC1)c1ccc([N+](=O)[O-])cc1`
# output inactive

# input Try this molecule next: `CC[C@H](CO)NCCN[C@@H](CC)CO`
# output inactive

# input Try this molecule next: `CN(C)c1nc(N)c(C(=O)N=C(N)N)nc1Cl`
# output active

# input Try this molecule next: `Cc1cc(OCCn2cc(/C(N)=N/O)c3ccccc32)ccc1Cl`
# output active

# input Try this molecule next: `OC(CCN1CCCCC1)(c1ccccc1)c1ccccc1`
# output inactive

# input Try this molecule next: `O=C(Nc1ccccc1N1CCOCC1)c1cnccn1`
# output active

# input Try this molecule next: `O=[N+]([O-])c1cccc(-c2nc(-c3ccncc3)no2)c1`
# output active

# input Try this molecule next: `C=CCSc1ccsc1C(=O)O`
# output inactive

# input Try this molecule next: `NC(=O)C1CCN(C(=O)OCc2ccccc2)CC1`
# output inactive

# input Try this molecule next: `COc1cc(/C=C(/NC(=O)c2ccccc2Cl)C(=O)O)cc(OC)c1OC`
# output inactive

# input Try this molecule next: `Cc1cc(NC(=O)C2CCCC2)n(-c2nc3ccccc3[nH]2)n1`
# output active

# input Try this molecule next: `CCS(=O)(=O)N1CCC(C(=O)NCc2cccnc2)CC1`
# output inactive

# input Try this molecule next: `Cn1c(CN2CCCCC2)nc2cc(NC(=O)c3ccc(Cl)cc3)ccc21`
# output inactive

# input Try this molecule next: `NC(N)=N[C@H](CCC(=O)O)C(=O)O`
# output inactive

# input Try this molecule next: `Cc1cc(C)c(/C=C2/C(=O)Nc3ccccc32)[nH]1`
# output active

# input Try this molecule next: `CCN(c1nc(N)c(C(=O)N=C(N)N)nc1Cl)C(C)C`
# output active

# input Try this molecule next: CCS(=O)(=O)N1CCCC(C(=O)NCCCOC(C)C)C1 (configuration not stated)
# output inactive
